Target: Histamine H4 receptor (Homo sapiens, UniProt Q9H3N8)
Sequence (Q9H3N8 whole entry): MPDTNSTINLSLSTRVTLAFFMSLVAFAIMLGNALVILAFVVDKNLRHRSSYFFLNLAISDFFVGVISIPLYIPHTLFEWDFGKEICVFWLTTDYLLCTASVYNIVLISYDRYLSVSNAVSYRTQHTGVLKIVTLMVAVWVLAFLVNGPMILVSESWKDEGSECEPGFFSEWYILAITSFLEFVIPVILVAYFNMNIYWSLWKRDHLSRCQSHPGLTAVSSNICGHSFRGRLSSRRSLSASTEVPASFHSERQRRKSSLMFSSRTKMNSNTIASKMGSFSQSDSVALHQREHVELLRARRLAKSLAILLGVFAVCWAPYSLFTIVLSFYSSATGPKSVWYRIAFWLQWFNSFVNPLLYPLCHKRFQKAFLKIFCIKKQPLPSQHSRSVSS
Conditions: HEK293
RECORDED METRIC: pKb
Give your answer as a number; write no unit.

// "Nc1nc2c(c(N3CCNCC3)n1)CCCc1ccccc1-2" : pKb value = 7.13

###

Test: Selectivity ratio of Ki for human histamine H4 receptor to Ki for histamine H2 receptor
# maps each entry to its Ratio Ki

MOLECULE: CNC1CN(c2nc(N)nc3c2CCCc2ccccc2-3)C1
RECORDED METRIC: Ratio Ki
VALUE OBSERVED: > 860

Reported Ratio Ki ( "Nc1nc2c(c(N3CCNCC3)n1)CCCc1ccc(F)cc1-2" ) = > 1820

The molecule listed as "CN1CCN(c2cc(-c3ccc(C#N)cc3)nc(N)n2)CC1" has a reported Ratio Ki of > 260

Entry under test: "CN[C@@H]1CCN(c2nc(N)nc3c2CCCc2ccccc2-3)C1" . Its Ratio Ki was > 1300

Ratio Ki recorded for this molecule, "Nc1nc2c(c(N3CCNCC3)n1)CCCc1ccccc1-2" , is > 130

get_value(item= Nc1nc2c(c(N3CCNCC3)n1)CCCCC2c1ccccc1 (stereo unspecified) , readout=Ratio Ki) returns > 230
